Target: RAC-alpha serine/threonine-protein kinase (Mus musculus, UniProt P31750)
Sequence (P31750 whole entry): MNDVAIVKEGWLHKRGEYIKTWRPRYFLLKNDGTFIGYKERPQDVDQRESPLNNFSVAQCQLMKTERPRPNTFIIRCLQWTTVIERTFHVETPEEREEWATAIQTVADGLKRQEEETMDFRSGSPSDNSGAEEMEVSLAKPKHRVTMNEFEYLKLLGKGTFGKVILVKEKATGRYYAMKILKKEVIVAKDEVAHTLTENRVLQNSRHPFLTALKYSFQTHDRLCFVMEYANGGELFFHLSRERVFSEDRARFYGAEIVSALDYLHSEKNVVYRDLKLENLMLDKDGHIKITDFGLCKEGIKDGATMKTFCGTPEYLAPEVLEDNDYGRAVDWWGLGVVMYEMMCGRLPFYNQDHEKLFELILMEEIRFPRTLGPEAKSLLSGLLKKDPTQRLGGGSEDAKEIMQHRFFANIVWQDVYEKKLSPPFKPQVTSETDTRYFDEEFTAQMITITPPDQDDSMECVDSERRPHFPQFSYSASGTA
Assay: Inhibition of Akt phosphorylation in mouse Sal cells by Western blotting
Metric: IC50 (nM)
One number for each entry, in nM.

Dear colleague, I am looking for the recorded IC50 of the following molecule: C[C@@]1(C(=O)Nc2ccc(F)nc2)CCCN1c1nc(Nc2cc(C3CC3)n[nH]2)c2cccn2n1 [BMS-754807]
22

###

Assay: Total clearance in iv dosed mouse
Type: ADME, organism-based
Details: in vivo
Metric: clearance (mL/min/kg)
One number for each entry, in mL/min/kg.

Which clearance reading was recorded for the compound "C[C@@]1(C(=O)Nc2ccc(F)nc2)CCCN1c1nc(Nc2cc(C3CC3)n[nH]2)c2cccn2n1" ?
113
